Where do these numbers come from? They come from patent US7612084B2.

- SUBJECT_OF_TEST: human adrenergic B2 receptor (Homo sapiens)
- Sequence (P07550 whole entry): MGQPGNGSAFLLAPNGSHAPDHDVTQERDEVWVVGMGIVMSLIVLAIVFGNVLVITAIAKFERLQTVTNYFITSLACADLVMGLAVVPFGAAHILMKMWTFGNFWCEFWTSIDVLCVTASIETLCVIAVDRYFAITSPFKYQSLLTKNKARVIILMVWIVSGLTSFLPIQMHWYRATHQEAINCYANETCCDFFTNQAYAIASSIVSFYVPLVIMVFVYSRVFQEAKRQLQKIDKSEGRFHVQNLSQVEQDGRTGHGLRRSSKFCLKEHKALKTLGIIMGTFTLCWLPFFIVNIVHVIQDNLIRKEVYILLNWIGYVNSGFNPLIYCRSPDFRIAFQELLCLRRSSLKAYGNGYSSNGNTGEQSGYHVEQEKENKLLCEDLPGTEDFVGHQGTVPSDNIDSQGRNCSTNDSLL
- PROTOCOL_SUMMARY: Whole cell luciferase reporter assay in CHO cells expressing the hB2 receptor (agonist potency)
- COND: 4 h incubation, read-out: EC50 - beta2
Answer each item with its documented pEC50.
One number for each entry, as −log10 of the molar value.

Sample records with pEC50:
| MOLECULE | MEASURED_VALUE |
| --- | --- |
| CC(C)N(CC[C@H](c1ccccc1)c1cc(CCOc2ccc(CCNC[C@H](O)c3cc(O)cc(O)c3)cc2)ccc1O)C(C)C [Example 12] | 7.86 |
| CC(C)N(CC[C@H](c1ccccc1)c1cc(CCCOc2ccc(CCNC[C@H](O)c3ccc(O)c(NS(C)(=O)=O)c3)cc2)ccc1O)C(C)C [Example 2] | 9.49 |
| CC(C)N(CC[C@H](c1ccccc1)c1cc(CCCCOc2ccc(CCNC[C@H](O)c3ccc(O)c(NC=O)c3)cc2)ccc1O)C(C)C [Example 7] | 10.31 |
| CC(C)N(CC[C@H](c1ccccc1)c1cc(CCOc2ccc(CC(C)(C)NC[C@H](O)c3ccc(O)c4[nH]c(=O)ccc34)cc2)ccc1O)C(C)C [Example 20] | 10.55 |
| CC(C)N(CC[C@H](c1ccccc1)c1cc(CCOc2cccc(CCNC[C@H](O)c3ccc(O)c(CO)c3)c2)ccc1O)C(C)C [Example 11] | 8.66 |

Turning to the following molecule.
Data point: CC(C)N(CC[C@H](c1ccccc1)c1cc(CCCCOc2ccc(CCNC[C@H](O)c3ccc(O)c(CO)c3)cc2)ccc1O)C(C)C [Example 18] ; pEC50 = 9.66
